B1: NLV2 TCR alpha chain (CDR3α only) (parent)
chain: AGPMKTSYDKVI
partner: NLVGMVATV

Variants of: B1
Assay: T-Switch: Jurkat TCRβ−/− cells expressing a CDR3 saturation-mutagenesis library, stained with two peptide-HLA-A*02:01 tetramers (original and novel peptide) plus anti-CD3, FACS-sorted into four gates, gDNA sequenced
Conditions: with HLA-A*02:01 with peptide … (NLV 2-2, the original bait), tetramers 1 µg/mL, 30 min on ice, DP and SW gates expanded about 10 days between rounds ('two to three rounds of selection' in the Methods), gate SP: higher = more of the variant in the gate that binds the original peptide and not the novel one = retained original binding. Fold enrichment of the CDR3 variant in one FACS gate of a two-tetra, unresolved parent, parent is a CDR3 fragment, scale: fold enrichment, numbering: sequential-on-construct, sequence …
MEASURED PROPERTY: enrichment
Answers are plain numbers.

Below, 10 variants whose answers are already recorded.
>  <VARIANT CODE>
[…] (CDR3 as printed); V11M derived by comparing it with the table's wild-type CDR3 AGPMKTSYDKVI

>  <enrichment>
0

$$$$
>  <VARIANT CODE>
[…] (CDR3 as printed); T6G derived by comparing it with the table's wild-type CDR3 AGPMKTSYDKVI

>  <enrichment>
0

$$$$
>  <VARIANT CODE>
[…] (CDR3 as printed); G2M derived by comparing it with the table's wild-type CDR3 AGPMKTSYDKVI

>  <enrichment>
0.715

$$$$
>  <VARIANT CODE>
[…] (CDR3 as printed); I12T derived by comparing it with the table's wild-type CDR3 AGPMKTSYDKVI

>  <enrichment>
0

$$$$
>  <VARIANT CODE>
[…] (CDR3 as printed); T6D derived by comparing it with the table's wild-type CDR3 AGPMKTSYDKVI

>  <enrichment>
0

$$$$
>  <VARIANT CODE>
[…] (CDR3 as printed); K5V derived by comparing it with the table's wild-type CDR3 AGPMKTSYDKVI

>  <enrichment>
1.08

$$$$
>  <VARIANT CODE>
[…] (CDR3 as printed); K10W derived by comparing it with the table's wild-type CDR3 AGPMKTSYDKVI

>  <enrichment>
0

$$$$
>  <VARIANT CODE>
[…] (CDR3 as printed); G2Y derived by comparing it with the table's wild-type CDR3 AGPMKTSYDKVI

>  <enrichment>
0

$$$$
>  <VARIANT CODE>
[…] (CDR3 as printed); K10R derived by comparing it with the table's wild-type CDR3 AGPMKTSYDKVI

>  <enrichment>
0

$$$$
>  <VARIANT CODE>
[…] (CDR3 as printed); Y8V derived by comparing it with the table's wild-type CDR3 AGPMKTSYDKVI

>  <enrichment>
0

$$$$

Now for another entry.
get_value(item= […] (CDR3 as printed); K10L derived by comparing it with the table's wild-type CDR3 AGPMKTSYDKVI , readout=enrichment) returns 0
